System: Aphis craccivoral
assaySummary: Insecticidal activity against Aphis craccivoral by immersing (dipping aphids on bean sprout)
Format: in vivo
statedConditions: 500 ppm (500 ug/mL dilution), dipped 5 seconds, killed aphis counted after 24 hours, 23° C.
assayReadout: mortality (%) (500 ppm) Aphis

[[record]]
compound = "CCCC(C)N=C1CCC([N+](=O)[O-])=C2N(Cc3ccc(Cl)nc3)CCN12 (centres unmarked)"
subjectoftest = "Aphis craccivoral"
number = 8

[[record]]
compound = "CC(C)CCN=C1CCC([N+](=O)[O-])=C2N(Cc3ccc(Cl)nc3)CCCN12"
subjectoftest = "Aphis craccivoral"
number = 23

[[record]]
compound = "CCN=C1CCC([N+](=O)[O-])=C2N(Cc3ccc(Cl)nc3)CCCN12"
subjectoftest = "Aphis craccivoral"
number = 92

[[record]]
compound = "CCCN=C1CCC([N+](=O)[O-])=C2N(Cc3cnc(Cl)s3)CCN12"
subjectoftest = "Aphis craccivoral"
number = 23

[[record]]
compound = "O=[N+]([O-])C1=C2N(Cc3ccc(Cl)nc3)CCCN2C(=NCCCl)CC1"
subjectoftest = "Aphis craccivoral"
number = 46

[[record]]
compound = "CSC1CCC([N+](=O)[O-])=C2N(Cc3cnc(Cl)s3)CCN21 (centres unmarked)"
subjectoftest = "Aphis craccivoral"
number = 97

[[record]]
compound = "CCCCCN=C1CCC([N+](=O)[O-])=C2N(Cc3cnc(Cl)s3)CCN12"
subjectoftest = "Aphis craccivoral"
number = 45

[[record]]
compound = "CC(C)(C)CN=C1CCC([N+](=O)[O-])=C2N(Cc3ccc(Cl)nc3)CCCN12"
subjectoftest = "Aphis craccivoral"
number = 34


###

System: Nilaparvata lugens
assaySummary: Insecticidal activity against Nilaparvata lugens (planthopper) by spraying
Assay type: in vivo
statedConditions: 500 ppm; spraying 2 ml; counted after 24 hours
Okay, here is how we bin by mortality (%) (500 ppm) Nilaparvata lugens: Low (below 20%), Mid (20% to below 90%), High (90% or more)

[[record]]
compound = "CCCCCSC1CCC([N+](=O)[O-])=C2N(Cc3ccc(Cl)nc3)CCN21 (stereo not shown)"
grouplabel = "Mid"

[[record]]
compound = "COCCOC1CCC([N+](=O)[O-])=C2N(Cc3cnc(Cl)s3)CCN21 (stereo not shown)"
grouplabel = "High"

[[record]]
compound = "CC(C)COC1CCC([N+](=O)[O-])=C2N(CC3CCOC3)CCCN21 (stereo not shown)"
grouplabel = "Low"

[[record]]
compound = "O=[N+]([O-])C1=C2N(CC3CCOC3)CCCN2C(O)CC1 (stereo not shown)"
grouplabel = "Low"

[[record]]
compound = "CCCOC1CCC([N+](=O)[O-])=C2N(CC3CCOC3)CCCN21 (stereo not shown)"
grouplabel = "Mid"

[[record]]
compound = "CC(C)(C)COC1CCC([N+](=O)[O-])=C2N(CC3CCOC3)CCN21 (stereo not shown)"
grouplabel = "Mid"

[[record]]
compound = "O=[N+]([O-])C1=C2N(CC3CCOC3)CCN2C(OC2CCCCC2)CC1 (stereo not shown)"
grouplabel = "Low"

[[record]]
compound = "CC1CC(O)N2CCN(Cc3cnc(Cl)s3)C2=C1[N+](=O)[O-] (stereo not shown)"
grouplabel = "Low"

[[record]]
compound = "CCCC(C)SC1CCC([N+](=O)[O-])=C2N(Cc3ccc(Cl)nc3)CCN21 (stereo not shown)"
grouplabel = "High"

[[record]]
compound = "C#CCOC1CCC([N+](=O)[O-])=C2N(CC3CCOC3)CCN21 (stereo not shown)"
grouplabel = "Mid"

[[record]]
compound = "C#CCOC1CCC([N+](=O)[O-])=C2N(Cc3ccc(Cl)nc3)CCN21 (racemic)"
grouplabel = "Mid"

[[record]]
compound = "O=C(OC1CCC([N+](=O)[O-])=C2N(Cc3ccc(Cl)nc3)CCN21)c1ccccc1 (stereo not shown)"
grouplabel = "Mid"

[[record]]
compound = "O=[N+]([O-])C1=C2N(Cc3ccc(Cl)nc3)CCN2C(SCC(F)(F)F)CC1 (stereo not shown)"
grouplabel = "High"

[[record]]
compound = "O=C(OC1CCC([N+](=O)[O-])=C2N(Cc3cnc(Cl)s3)CCN21)c1cccnc1 (stereo not shown)"
grouplabel = "Low"

[[record]]
compound = "O=[N+]([O-])C1=C2N(Cc3ccc(Cl)nc3)CCCN2C(OCC(F)(F)F)CC1 (stereo not shown)"
grouplabel = "High"

[[record]]
compound = "O=C(OC1CCC([N+](=O)[O-])=C2N(Cc3ccc(Cl)nc3)CCN21)C(Cl)(Cl)Cl (stereo not shown)"
grouplabel = "Mid"

[[record]]
compound = "C=CCOC1CCC([N+](=O)[O-])=C2N(Cc3ccc(Cl)nc3)CCN21 (racemic)"
grouplabel = "Mid"

[[record]]
compound = "O=C(OC1CCC([N+](=O)[O-])=C2N(Cc3ccc(Cl)nc3)CCN21)c1ccc(F)cc1 (stereo not shown)"
grouplabel = "High"

[[record]]
compound = "CC(C)OC1CCC([N+](=O)[O-])=C2N(Cc3cnc(Cl)s3)CCCN21 (stereo not shown)"
grouplabel = "Mid"

[[record]]
compound = "O=[N+]([O-])C1=C2N(Cc3ccc(Cl)nc3)CCN2C(OS(=O)(=O)c2ccccc2)CC1 (stereo not shown)"
grouplabel = "Mid"

[[record]]
compound = "O=[N+]([O-])C1=C2N(CC3CCOC3)CCCN2C(OCC(F)(F)F)CC1 (stereo not shown)"
grouplabel = "High"

[[record]]
compound = "CCOCCOC1CCC([N+](=O)[O-])=C2N(Cc3ccc(Cl)nc3)CCCN21 (stereo not shown)"
grouplabel = "Mid"

[[record]]
compound = "CCOCCOC1CCC([N+](=O)[O-])=C2N(Cc3cnc(Cl)s3)CCN21 (stereo not shown)"
grouplabel = "High"

[[record]]
compound = "O=[N+]([O-])C1=C2N(Cc3cnc(Cl)s3)CCCN2C(O)CC1 (stereo not shown)"
grouplabel = "Mid"

[[record]]
compound = "CCC(C)OC1CCC([N+](=O)[O-])=C2N(Cc3cnc(Cl)s3)CCCN21 (stereo not shown)"
grouplabel = "Low"

[[record]]
compound = "CCCOC1CCC([N+](=O)[O-])=C2N(Cc3ccc(Cl)nc3)CCCN21 (stereo not shown)"
grouplabel = "High"

[[record]]
compound = "O=[N+]([O-])C1=C2N(CC3CCOC3)CCN2C(OCCCl)CC1 (stereo not shown)"
grouplabel = "Low"

[[record]]
compound = "CCCCOC1CCC([N+](=O)[O-])=C2N(Cc3cnc(Cl)s3)CCN21 (racemic)"
grouplabel = "Mid"

[[record]]
compound = "O=[N+]([O-])C1=C2N(Cc3cnc(Cl)s3)CCN2C(OCCCl)CC1 (racemic)"
grouplabel = "Mid"

[[record]]
compound = "CC(C)COC1CCC([N+](=O)[O-])=C2N(CC3CCOC3)CCN21 (stereo not shown)"
grouplabel = "Mid"


###

Test system: Nilaparvata lugens
assaySummary: Insecticidal activity against Nilaparvata lugens (planthopper) by spraying
Format: in vivo
statedConditions: 500 ppm; spraying 2 ml; counted after 24 hours
Protocol: Test on the insecticidal activity of Compound Nos. 1-227 Planthopper, which belongs to Homoptera and has a piercing-sucking mouthpart, is a common insect for agricultural plant. Nilaparvata lugens was tested by the way of spraying. Test method: the test compound was exactly formulated into a solution having a certain concentration and clean water was used as a blank control. […] The number of killed Nilaparvata lugens was counted after 24 hours to calculate the mortality.
Overview of recorded mortality (%) (500 ppm) Nilaparvata lugens for various compounds
assayReadout: mortality (%) (500 ppm) Nilaparvata lugens

[[record]]
compound = "CC(C)(C)COC1CCC([N+](=O)[O-])=C2N(Cc3cnc(Cl)s3)CCN21 (racemic)"
unitinfo = "%"
number = 35

[[record]]
compound = "O=C(OC1CCC([N+](=O)[O-])=C2N(Cc3ccc(Cl)nc3)CCN21)c1cc(F)c(F)c(F)c1F (centres unmarked)"
unitinfo = "%"
number = 21

[[record]]
compound = "O=[N+]([O-])C1=C2N(CC3CCOC3)CCN2C(O)CC1 (centres unmarked)"
unitinfo = "%"
number = 89

[[record]]
compound = "O=C(OC1CCC([N+](=O)[O-])=C2N(Cc3ccc(Cl)nc3)CCN21)c1cccnc1 (centres unmarked)"
unitinfo = "%"
number = 5

[[record]]
compound = "CC(C)CSC1CCC([N+](=O)[O-])=C2N(Cc3ccc(Cl)nc3)CCN21 (centres unmarked)"
unitinfo = "%"
number = 78

[[record]]
compound = "O=[N+]([O-])C1=C2N(Cc3cnc(Cl)s3)CCCN2C(OC(C(F)(F)F)C(F)(F)F)CC1 (centres unmarked)"
unitinfo = "%"
number = 5

[[record]]
compound = "CC(C)OC1CCC([N+](=O)[O-])=C2N(CC3CCOC3)CCN21 (centres unmarked)"
unitinfo = "%"
number = 23

[[record]]
compound = "COCCOC1CCC([N+](=O)[O-])=C2N(Cc3cnc(Cl)s3)CCCN21 (centres unmarked)"
unitinfo = "%"
number = 100

